Tested on: clinically isolated HIV strain H
Format: cell-based
Details: FR=EC50(mutant strain)/EC50(HIV-1 strain LAI)
Assay endpoint: fold resistance (FR), strain H
Give bare numbers.

Use these answered entries as a reference point.
Compound | fold resistance (FR), strain H
CC(C)CN(C[C@@H](O)[C@H](Cc1ccccc1)NC(=O)OCc1cccnc1)S(=O)(=O)c1ccc2nc(NCCN3CCNCC3)sc2c1 [Compound 58] | 1.6
CC(C)CN(C[C@@H](O)[C@H](Cc1ccccc1)NC(=O)O[C@H]1CO[C@H]2OCC[C@H]21)S(=O)(=O)c1ccc2nc(NCCN3CCCC3)sc2c1 [Compound 20] | 0.5
CC(=O)Nc1nc2ccc(S(=O)(=O)N(CC(C)C)CC(O)C(Cc3ccccc3)NC(=O)OC3COC4OCCC34)cc2s1 (mixture of isomers) [Compound 1] | 0.9
CC(=O)N(C)c1nc2ccc(S(=O)(=O)N(CC(C)C)CC(O)C(Cc3ccccc3)NC(=O)OC3COC4OCCC34)cc2s1 (mixture of isomers) [Compound 9] | 6.7
CC(C)CN(C[C@@H](O)[C@H](Cc1ccccc1)NC(=O)O[C@H]1CO[C@H]2OCC[C@H]21)S(=O)(=O)c1ccc2nc(NC(=O)CN3CCCC3)sc2c1.Cl [Compound 14] | 0.5

Batch: fold resistance (FR), strain H for all items listed.
1. Cc1cccc(C)c1OCC(=O)N[C@@H](Cc1ccccc1)[C@H](O)CN(CC(C)C)S(=O)(=O)c1ccc2nc(NCCN3CCCC3)sc2c1 [Compound 46]
2. CC(=O)Nc1nc2ccc(S(=O)(=O)N(CC(C)C)C[C@@H](O)[C@H](Cc3ccccc3)NC(=O)c3cc([N+](=O)[O-])ccc3C)cc2s1 [Compound 72]
3. CC(=O)N(C)c1nc2ccc(S(=O)(=O)N(CC(C)C)C[C@@H](O)[C@H](Cc3ccccc3)NC(=O)OCc3cncs3)cc2s1 [Compound 80]

Output:
1.3
24.9
5.7

Batch: fold resistance (FR), strain H for all items listed.
1. Cc1cccc(C)c1OCC(=O)N[C@@H](Cc1ccccc1)[C@H](O)CN(CC(C)C)S(=O)(=O)c1ccc2nc(NCCCN(C)C)sc2c1 [Compound 53]
2. CC(C)CN(C[C@@H](O)[C@H](Cc1ccccc1)NC(=O)O[C@H]1CO[C@H]2OCC[C@H]21)S(=O)(=O)c1ccc2nc(NC(=O)CN3CCCC3)sc2c1.O=C(O)C(=O)O [Compound 15]
3. CC(C)CN(CC(O)C(Cc1ccccc1)NC(=O)OC1COC2OCCC12)S(=O)(=O)c1ccc2nc(NC(=O)CN3CCNCC3)sc2c1 (mixture of isomers) [Compound 5]

Output:
1. 0.6
2. 0.5
3. 0.6

====

System: clinically isolated HIV strain H
Assay type: cell-based
Conditions: FR=EC50(mutant strain)/EC50(HIV-1 strain LAI)
Method: HIV- or mock-infected MT4 cells were incubated for five days in the presence of various concentrations of the inhibitor. […] Cell viability is measured by measuring the concentration of MTT, a yellow, water soluble tetrazolium dye that is converted to a purple, water insoluble formazan in the mitochondria of living cells only. Upon solubilization of the resulting formazan crystals with isopropanol, the absorbance of the solution is monitored at 540 nm. […]
Entries get a class label from measured fold resistance (FR), strain H. See ranges: Low = under 0.9, Mid = from 0.9 up to 2, High = 2 and over

Compound | Label value
Cc1cccc(C)c1OCC(=O)N[C@@H](Cc1ccccc1)[C@H](O)CN(CC(C)C)S(=O)(=O)c1ccc2nc(NCCN(C)C)sc2c1 | High

Task: Which fold resistance (FR), strain H band matches CNCCNc1nc2ccc(S(=O)(=O)N(CC(C)C)C[C@@H](O)[C@H](Cc3ccccc3)NC(=O)O[C@H]3CO[C@H]4OCC[C@H]43)cc2s1 ?
Output: Mid

Task: Which fold resistance (FR), strain H band matches Cc1cc(Br)ccc1C(=O)N[C@@H](Cc1ccccc1)[C@H](O)CN(CC(C)C)S(=O)(=O)c1ccc2nc(NC(=O)CN3CCCC3)sc2c1 ?
Output: High

Task: Which fold resistance (FR), strain H band matches CC(C)CN(CC(O)C(Cc1ccccc1)NC(=O)OC1COC2OCCC12)S(=O)(=O)c1ccc2nc(NC(=O)CN3CCCC3)sc2c1 (stereo not drawn) [Compound 12] ?
Output: Low

Task: Which fold resistance (FR), strain H band matches CC(C)CN(C[C@@H](O)[C@H](Cc1ccccc1)NC(=O)OCc1cncs1)S(=O)(=O)c1ccc2nc(NCCCN(C)C)sc2c1 ?
Output: Mid

Task: Which fold resistance (FR), strain H band matches Cc1c(N)cccc1C(=O)N[C@@H](Cc1ccccc1)[C@H](O)CN(CC(C)C)S(=O)(=O)c1ccc2nc(NCCN(C)C)sc2c1 ?
Output: High

Task: Which fold resistance (FR), strain H band matches Cc1c(N)cccc1C(=O)N[C@@H](Cc1ccccc1)[C@H](O)CN(CC(C)C)S(=O)(=O)c1ccc2nc(NCCCN(C)C)sc2c1 ?
Output: Low

Task: Which fold resistance (FR), strain H band matches CC(C)CN(C[C@@H](O)[C@H](Cc1ccccc1)NC(=O)O[C@H]1CCOC1)S(=O)(=O)c1ccc2nc(NC(=O)CN3CCNCC3)sc2c1 ?
Output: Low

Task: Which fold resistance (FR), strain H band matches Cc1cc(N)ccc1C(=O)NC(Cc1ccccc1)C(O)CN(CC(C)C)S(=O)(=O)c1ccc2nc(NC(=O)CN(C)C)sc2c1 (stereo not drawn) ?
Output: Mid
